Source: ChEMBL document CHEMBL1955817

Target: Human immunodeficiency virus type 1 reverse transcriptase (Human immunodeficiency virus 1, UniProt Q72547, K103N)
Experiment: Inhibition of RNA-dependent DNA polymerase activity of Human immunodeficiency virus 1 reverse transcriptase Lys103Asn mutant
Test Readout: IC50

Ask: Please give the documented IC50 of O=C1Nc2ccccc2/C1=N/Nc1nc(-c2ccc(O)c(O)c2)cs1
Result: 3.4 µM

---

Give IC50 for every item shown.
Target: Human immunodeficiency virus type 1 reverse transcriptase (Human immunodeficiency virus 1)
Experiment: Inhibition of ribonuclease H activity of HIV1 reverse transcriptase using as poly(dC)-[3H]poly(rG) as substrate

Ask: Please give the documented IC50 of CC(=O)Nc1ccc(S(=O)(=O)N/N=C/c2c(O)ccc3ccccc23)cc1
Result: 64 µM

Ask: Please give the documented IC50 of O=C(N/N=C/c1c(O)ccc2ccccc12)c1ccccc1
Result: > 100 µM

Ask: Please give the documented IC50 of O=C1Nc2ccccc2/C1=N/NC(=S)Nc1ccc(O)cc1
Result: > 100 µM

Ask: Please give the documented IC50 of Nc1ccc(S(=O)(=O)N/N=C/c2ccc3c(c2)OCO3)cc1
Result: > 100 µM

Ask: Please give the documented IC50 of COc1cccc(C[C@H](C)NC[C@@H](O)c2ccc(O)c(O)c2)c1
Result: > 100 µM

Ask: Please give the documented IC50 of O=[N+]([O-])c1cc(I)cc(/C=N/NS(=O)(=O)c2ccc(Cl)cc2)c1O
Result: 63 µM

Ask: Please give the documented IC50 of O=[N+]([O-])c1ccc(S(=O)(=O)N/N=C/c2cccc3ccccc23)cc1
Result: > 100 µM

Ask: Please give the documented IC50 of Cc1ccc([N+](=O)[O-])cc1NS(=O)(=O)c1cc(Cl)c(Cl)cc1Cl
Result: > 100 µM

Ask: Please give the documented IC50 of COc1ccccc1C(=O)N/N=C/c1c[nH]c2ccccc12
Result: > 10 µM

Ask: Please give the documented IC50 of O=C(N/N=C/c1ccc(O)c(O)c1)c1ccccc1
Result: 50 µM

Ask: Please give the documented IC50 of CC1=CC(=O)/C(=C/Nc2nc(-c3cccc([N+](=O)[O-])c3)cs2)C(=O)O1
Result: 18 µM
